Tested on: MDA-MB-435 melanoma
TEST DESCRIPTION: NCI-60 one-dose screen, 48 h
ASSAY CONDITIONS: 10 µM unless noted
This is part of a sample that, as a whole, favours compounds with a hit. Of some 83,000 tested, about 20% had one in any assay. The source made the active and inactive calls. The calls were made as follows: active = growth percent below 10; inactive = the rest.
Labels: active, inactive

query_smiles=Cc1ccc(S(=O)(=O)Oc2cc(OS(=O)(=O)c3ccc(C)cc3)cc(OS(=O)(=O)c3ccc(C)cc3)c2)cc1 cat=inactive
query_smiles=C[C@H]1[C@H]2[C@H]3CC[C@@H]4[C@@]5(C)C/C(=C/c6cccnc6)C(=O)C(C)(C)[C@@H]5CC[C@@]4(C)[C@]3(C)CC[C@]23CO[C@]1(C)[C@@H](C(=O)/C=C\c1cccnc1)C3 cat=active
query_smiles=Cc1ccc(/C=C2\C(=O)N(C)c3ccc(S(=O)(=O)Nc4ccc(C(C)(C)C)cc4)cc32)s1 cat=inactive
query_smiles=CCN(CC)CCN1CC(O)=C(c2nc(-c3ccc(Cl)cc3)cs2)C1=N cat=active
query_smiles=c1ccc2c(c1)nc(CN1CCOCC1)n1cc(N3CCCC3)nc21 cat=inactive
query_smiles=COC(=O)c1ccc(CSc2nnc(-c3c(C)nc4ccc(C)cn34)o2)cc1 cat=inactive
query_smiles=N#Cc1c(-c2cccc(Cl)c2)cc(-c2cccc(F)c2)[nH]c1=O cat=inactive
query_smiles=CN1CCN(CC(=O)Nc2nc(-c3cccc(NS(=O)(=O)c4cccc5c(N(C)C)cccc45)c3)cs2)CC1 cat=inactive

* * *

Tested on: ACHN renal
TEST DESCRIPTION: NCI-60 one-dose screen, 48 h
ASSAY CONDITIONS: 10 µM unless noted
Compounds without any hit were thinned out: in the full panel of roughly 83,000, 20% have a hit. Activity calls are given as the source filed them. How the source made its calls: active means growth percent below 10; inactive means the rest.
Labels: True = active, False = inactive

molecule=Cc1cc(NCc2cc(Nc3ccnc4cc(Cl)ccc34)ccc2F)nc(N2CCOCC2)n1 cat=True
molecule="CCCCOc1nc2ccccc2cc1C1CNC(=O)c2ccccc2N1 (stereo not given)" cat=False
molecule=COc1cc(/C=C/C(=O)c2c(C)nc3ccccc3c2/C=C/c2ccc(C)cc2)cc(OC)c1OC cat=False
molecule=O=C1/C(=C/c2ccccc2)CCc2nc3ccccc3c(/C=C/c3ccc(Cl)cc3)c21 cat=False
molecule="CC1(c2ccccc2)NC(=O)N(NC(=O)CSc2nc(-c3cccs3)nc3ccccc23)C1=O (stereo not given)" cat=False
molecule=CNC(=O)c1cc(Oc2ccc3nc(Nc4ccc(Cl)c(C(F)(F)F)c4)ccc3c2)ccn1 cat=False
molecule=O=C(O)c1ccc2c(c1Cl)C(=O)c1ccccc1C2=O cat=False
molecule=CN(C)c1ccc(/C=C/C(=O)c2cccc(Nc3nc(Nc4ccccc4)nc(Nc4ccccc4)n3)c2)cc1 cat=False
molecule="CCCCCCCOc1c(OC)cc(C2CC(=O)Nc3c2c(C)nn3-c2nc3ccccc3[nH]2)cc1OC (stereo not given)" cat=True
molecule=CN1CCN(CCCOc2ccc3nc(Nc4ccc(F)c(F)c4)ccc3c2)CC1 cat=False
molecule=CCN1CCN(c2nc(C)cc(NCc3cc(Nc4ccnc5cc(Cl)ccc45)ccc3F)n2)CC1 cat=False
molecule=N#Cc1nc(C#N)c(Sc2ccccc2)c(Sc2ccccc2)c1Sc1ccccc1 cat=True
molecule=O=Cc1c[nH]c2ccc(-c3csc4ccccc34)cc12 cat=False
molecule="COc1cc(C2CC(=O)Nc3c2c(C)nn3-c2nc3ccccc3[nH]2)cc2c1OCC(=O)N2 (stereo not given)" cat=False
molecule="COc1ccc(C2c3ccc4ccccc4c3Oc3nc(C)[nH]c(=O)c32)cc1 (stereo not given)" cat=False
molecule="O=[N+]([O-])c1ccc(C2CC(c3ccccc3)=Nc3ccccc3S2)cc1 (stereo not given)" cat=False
molecule=CCCCCCCCCCCCCCCCCC1=NCCN1CCOC1=C(Cl)C(=O)c2ccccc2C1=O cat=False
molecule="COc1ccc(C2=Nc3c(N)ncnc3NC(c3ccc4c(c3)OCO4)C2)cc1 (stereo not given)" cat=False
molecule=Cc1cccc(NC(=O)N/C(N)=N/c2nc(C)c(C)s2)c1 cat=False
molecule=NNC(=O)c1nc(N)n(-c2ccc(S(N)(=O)=O)cc2)n1 cat=False
